# credit: paper PMC6409085

Target: SfurOBP2 (Sogatella furcifera)
Sequence (V5T759 entry or part of it): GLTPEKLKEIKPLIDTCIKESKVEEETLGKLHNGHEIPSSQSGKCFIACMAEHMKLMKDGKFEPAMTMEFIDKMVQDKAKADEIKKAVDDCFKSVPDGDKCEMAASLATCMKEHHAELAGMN
Test: biochemical
Type: binding
Details: ligand concentration 4 (unit not given), replicate column 3 of 3
Quick rule for you: Fluorescence competitive binding assay, OBP2 (raw fluorescence reading) under 20000 gets true (1), anything else gets false (0).

[ask] Lab log: compare recorded Fluorescence competitive binding assay, OBP2 (raw fluorescence reading) with 20000; is it strictly lower for CC(C)COC(=O)CCCCC(=O)OCC(C)C [DA(diisobutyl adipate)] ?
[reply] true (1)

[ask] Lab log: compare recorded Fluorescence competitive binding assay, OBP2 (raw fluorescence reading) with 20000; is it strictly lower for CCCCCCCC=O ?
[reply] false (0)

[ask] Lab log: compare recorded Fluorescence competitive binding assay, OBP2 (raw fluorescence reading) with 20000; is it strictly lower for CCCCCCCCCCCCCCCC ?
[reply] true (1)

[ask] Lab log: compare recorded Fluorescence competitive binding assay, OBP2 (raw fluorescence reading) with 20000; is it strictly lower for C/C(=C\CO)CCC[C@H](C)CCC[C@H](C)CCCC(C)C ?
[reply] true (1)

[ask] Lab log: compare recorded Fluorescence competitive binding assay, OBP2 (raw fluorescence reading) with 20000; is it strictly lower for CCCCCCCCCCCCC=O ?
[reply] true (1)

[ask] Lab log: compare recorded Fluorescence competitive binding assay, OBP2 (raw fluorescence reading) with 20000; is it strictly lower for CCCCCCCCCCOCCCCCCCCCC ?
[reply] false (0)

[ask] Lab log: compare recorded Fluorescence competitive binding assay, OBP2 (raw fluorescence reading) with 20000; is it strictly lower for OC1CCCCC1 ?
[reply] true (1)

[ask] Lab log: compare recorded Fluorescence competitive binding assay, OBP2 (raw fluorescence reading) with 20000; is it strictly lower for CCCCCCCCCCCCCCCC(=O)OC [MH(methyl hexadecanoate)] ?
[reply] false (0)

[ask] Lab log: compare recorded Fluorescence competitive binding assay, OBP2 (raw fluorescence reading) with 20000; is it strictly lower for c1ccc2ccccc2c1 ?
[reply] false (0)

[ask] Lab log: compare recorded Fluorescence competitive binding assay, OBP2 (raw fluorescence reading) with 20000; is it strictly lower for CC(=O)/C=C/C1=C(C)CCCC1(C)C ?
[reply] true (1)

[ask] Lab log: compare recorded Fluorescence competitive binding assay, OBP2 (raw fluorescence reading) with 20000; is it strictly lower for CCC/C=C/CO [(E)-2-hexenol] ?
[reply] true (1)

[ask] Lab log: compare recorded Fluorescence competitive binding assay, OBP2 (raw fluorescence reading) with 20000; is it strictly lower for CC/C=C\CCO [(Z)-3-hexenol] ?
[reply] true (1)

[ask] Lab log: compare recorded Fluorescence competitive binding assay, OBP2 (raw fluorescence reading) with 20000; is it strictly lower for CCCCCCCCC=O ?
[reply] false (0)

[ask] Lab log: compare recorded Fluorescence competitive binding assay, OBP2 (raw fluorescence reading) with 20000; is it strictly lower for CCCCCCCC ?
[reply] true (1)

[ask] Lab log: compare recorded Fluorescence competitive binding assay, OBP2 (raw fluorescence reading) with 20000; is it strictly lower for O=C(c1ccccc1)c1ccccc1 ?
[reply] true (1)

[ask] Lab log: compare recorded Fluorescence competitive binding assay, OBP2 (raw fluorescence reading) with 20000; is it strictly lower for C[C@@H]1CC[C@H]2C(C)(C)[C@H]3C[C@@]12CC[C@@]3(C)O ?
[reply] false (0)

[ask] Lab log: compare recorded Fluorescence competitive binding assay, OBP2 (raw fluorescence reading) with 20000; is it strictly lower for C=CC(C)(O)CCC=C(C)C (stereo not drawn) ?
[reply] true (1)

[ask] Lab log: compare recorded Fluorescence competitive binding assay, OBP2 (raw fluorescence reading) with 20000; is it strictly lower for CCCCCCCCCCC ?
[reply] true (1)

[ask] Lab log: compare recorded Fluorescence competitive binding assay, OBP2 (raw fluorescence reading) with 20000; is it strictly lower for CC(=O)c1ccccc1 ?
[reply] true (1)

[ask] Lab log: compare recorded Fluorescence competitive binding assay, OBP2 (raw fluorescence reading) with 20000; is it strictly lower for CCCCCCCCCCCCO ?
[reply] true (1)

[ask] Lab log: compare recorded Fluorescence competitive binding assay, OBP2 (raw fluorescence reading) with 20000; is it strictly lower for Cc1ccc(C(C)C)cc1 ?
[reply] true (1)

[ask] Lab log: compare recorded Fluorescence competitive binding assay, OBP2 (raw fluorescence reading) with 20000; is it strictly lower for COC(=O)c1ccccc1 ?
[reply] false (0)
